molecular target: Human epidermal growth factor receptor 2 (HER2), endogenous on human cells and tissue (human, UniProt P04626 23-1255); experiment: flow cytometry on cells
Where no end group is shown, it is not given here. Cy5.5 = Cy5.5 fluorophore
value-type: Kd (nM)

1) KSPNPRFGGGSK(Cy5.5)-NH2 [KSP*-Cy5.5 (KSPNPRF peptide labeled with Cy5.5 via a GGGSK linker)] ... 21
